FYI, the data here is from the supplement of paper PMC9170038.

system: MS2 coat protein; assay: apparent KD of MS2 coat protein; higher = weaker reporter binding; settings: Eterna round: R107; input ligand: theophylline 20 uM
Below is a list of entries, each paired with its recorded apparent KD of MS2 coat protein value.

Residue Sequence	apparent KD of MS2 coat protein (nM)
AUGUCGUUGAAUAUAGCGGCUUGGUGUGAUACCAGAAUGAUCUAAUUCCCUUGGCAGCAUUACAUGAGGAUCACCCAUGUUUAGG [SSTheo A #19]	29.6
AAUAAUAUGAGGAUCACCCAUAUAAAAGAUACCAGAGUGAUGAUCCUCCCUUGGCAGCUUAACGCUGAUUGAUUACAAUCAGCGA	85
UCACGGCACUGAAGGAGCGAGUUGACAAACAUGAGGAUCACCCAUGUUAUGGGUUGUUAAUCUCAGGUAGGUCGCAGUUGUCGUG [Same State Arginine B GF 21]	418
AUGGCGUUGGUGAGGCGGUUUAAUGGCGAUACCAGCGUGGAAACACGCCCUUGGCAGCGCCAAAACAUGAGGAUCACCCAUGUUA [Budejovice]	28
GUCAGAACAUAUCAUGUUCUGGCACUGGAAGGAGCGAGCGAGAGCUCAGGUAGGUCGCCAGAACAUGAGGAUCACCCAUGUAAUA [(A)''-(M)'-(A)'(Arg1)-(Arg2)-(M1)-(M2)_Design11]	95.2
GGAAUAAUGGCGGCCGCCACUAACUCAUAUACAUCAUGUACAUGAGGAUCACCCAUGUAGGUGUAUAGGACCGGGCCAUAAUUCC [39MS split4]	27.3
ACAUGAAGAACAGCGGUGGGCGCGCUCGAUACCAGUAUUUUAACCUACCCUUGGCAGCGACAUGAGGAUCACCCAUGUGAGAUGA [XTheo A #7]	26.8
AAAGAACAUGAGGAUCACCCAUGUACCGAAGGAGCGGCGAAGAAGCCAGGUAGGUCGCGGAACAUGAAGCGAUUAAGAAUUAAUU	25.7
CGCAACAUGAGGAUCACCCAUGUAAUGACGCGAGGACCGGUACGGCCGCCACUCGCCUGCCAAUGAGCGCAUGCGGCCUGGGUAU [Exclusion Tryp A GF7]	16.1
UGGGUCGGAUGAGUAAAUUGUCCGACGUAUCGAGGACCGGUACGGCCGCCACUCGGUUGUACAUGAGGAUCACCCAUGUCAGGGU [#1 Same State - Tryptophan A Attempt #16 (HarryS)]	351
GCACGACAUGAGGAUCACCCAUGUGCAGAUACCAGUAGGAUAUCCUACCCUUGGCAGCUGAGUAGAUCUGGAGGACUAUAGGUAA [Same State Theophylline A GF9]	23
ACACAUGAGGAUCACCCAUGUGCGCUGGAAGGAGCGCAGAAUCAUGCAGGUAGGUCGCCAGUGCCCUUCGAUAAAGGGAAAAGAG [Erbienes]	72
UGGCGAGAAGGAAGGAGCGUCAGCUGAGUUACAUGAGGAUCACCCAUGUUUUACAUUGUGUGACAGGUAGGUCGCCUUCUGCCCU [SS-ArgB20]	18.8
AUAUAUACAUGAGGAUCACCCAUGUUAUUUCGAGGACCGGUACGGCCGCCACUCGAUAGAGUAGAAGUAAAUUUUGAUUCAUGUA [JR_SSTryptoA_Sub009]	27
ACAUGAGGAUCACCCAUGUGAAGGCACGAUACCAGCUGAUCCCGUGGCCCUUGGCAGCGUCCGGUUUGGUCCGGCGGAUGGGACG [vvamullin]	33.6
UUUAUGGAGCUUUUAUUUACGAUUUCUGAUACCAGUGUUUCAUUUCACCCUUGGCAGCAGUGACAUGAGGAUCACCCAUGUAAUA [JR_Nu_SSTheophyA_Sub020]	35.1
AGUCUUAAAGGAAGGAGCGCAGUCAUAACAUGAGGAUCACCCAUGUCGAUGUGAGGGUCAUUGCAGGUAGGUCGCCUUACUAAGA [Same State - Arginine B (Freestyle 5)]	46

###

tested on: MS2 coat protein; assay: apparent KD of MS2 coat protein; designed switch direction (-1 OFF switch, 1 ON switch): 1; higher = weaker reporter binding; settings: Eterna round: R95; input ligand: none

Residue Sequence	Unit Spec	apparent KD of MS2 coat protein
AACCCACAUGAGGAUCACCCAUGUGUCUGAGGCACAGGAUAUCGACAGGCAAGACACCUGCGAGAAGGGUGACCUC [Same State 1 - Mod of Vinnie Diatater v.1] (puzzle: Same State 1)	nM	27.9
AGAGCCGGCACCGAGGAUAUUCAUAUUAAAACAUGAGGAUCACCCAUGUAGGCCAGAAGGCCUUGGGAGAAGGCGGAUCGGCUCG [Xeonanis - 7] (puzzle: Same State 2)	nM	827
GGUCCAGCCUGAGCUGGACAAAAGCAUGUACAUGAGGAUCACCCAUGUUCAUGUACAAGCUUUUUGCUCGUCUUAAG [salish99_208a_r3_037] (puzzle: Sensor for hsa-mir-208a)	nM	740
AUAAGUUCGAUGCUCGUCUCUCCGUACAAACAUGAGGAUCACCCAUGUGAUUGGGCAAUAGCCCAAUCAGUAUGACC [Gemaa] (puzzle: Sensor for hsa-mir-208a)	nM	41.5
AGUCCAGCGAAAGCUGGACAAAAGCAUGUACAUGAGGAUCACCCAUGUUCAUGUACAAGUUUUUUGCUCGUUUUAAA [JL mod - D95 - 18] (puzzle: Sensor for hsa-mir-208a)	nM	45.8
GAAUAACAUGAGGAUCACCCAUGUAAUAUAAUGGGAGGAUAUCUGAAUUAAUUAUAUUAAGGAGAAGGCCUAUAUG [Mat - Same State 1 - Mod of Eli - D54] (puzzle: Same State 1)	nM	260
AGUCCAGCCUGAGCUGGACAAAAGCAUGUACAUGAGGAUCACCCAUGUCAUGUACAAGCUUUUUGCUCGUCUUAAAU [Mat - hsa-mir-208a - Mod of JL - D22] (puzzle: Sensor for hsa-mir-208a)	nM	584
GGGUGUGGAAGGAAAGAUAGGAAAAGGAAACAUGAGGAUCACCCAUGUGAAGGAAGAAAGGGAGCUCGUCUUAUAAG [JR_SHM208A_Sub001] (puzzle: Sensor for hsa-mir-208a)	nM	23.5
AGUCCAGCGAAAGCUGGACAAAGGCAUGUACAUGAGGAUCACCCAUGUUCAUGUACAAGCUUUUUGCUCGUCUUAAA [JL mod - D95 - 3] (puzzle: Sensor for hsa-mir-208a)	nM	194
UAGCACUGUCGAGAGGAUAUGCGGUGAUGGACAUGAGGAUCACCCAUGUUAGCGACAGCAUCACGGCAGAAGGCUCUACUGCUGC [Soteed Omei mod 35] (puzzle: Same State 2)	nM	13.7
CGUCCGGCCUGAGCUGGACGGUAGCAUGUACAUGAGGAUCACCCAUGUUCAUGUGCAGGCUUUUUGCUCGUCUUGUG [salish99_mir208a_modof_jandersonlee_003] (puzzle: Sensor for hsa-mir-208a)	nM	44.9
GUAGCAUGCAGCGAGGAUAUUCAUAUUAAAACAUGAGGAUCACCCAUGUAGGCCAAAAGGCCUUGGGAGAAGGCGCACAUGCUAC [Xeonanis - 20] (puzzle: Same State 2)	nM	717
AGUCCAGCCUGAGCUGGACAAAAGCAUGUACAUGAGGAUCACCCAUGUUAUGUACAAGCUUUUUGCUCGUCUUAAAA [Zipper 46 - 15] (puzzle: Sensor for hsa-mir-208a)	nM	153
AGUCCAGCCUGAGCUGGACAAAAGCAUGUACAUGAGGAUCACCCAUGUCAUGUACAAGUUUUUUGCUCGUCUUAAUA [Zipper 49 - 12] (puzzle: Sensor for hsa-mir-208a)	nM	53.1
AUUAAACAUGAGGAUCACCCAUGUCAACAAAGUCGAGGAUAUGGGCAAAUAAAAUUAGAACCAGAAGGCGAAUAAU [salish99_ss1_r3_063] (puzzle: Same State 1)	nM	229
AUUAAACAUGAGGAUCACCCAUGUCAACAAAGUCGAGGAUAUGGGCAAAUUAUAUAAUAACCAGAAGGCGAAUAAU [salish99_ss1_r3_083] (puzzle: Same State 1)	nM	14.2
AACAAUCUAUCUGAGGAUAUCAUGAUAAUAACAUGAGGAUCACCCAUGUGCAGGAAAACUGCAUAUGAGAAGGCAGAUAGAUUGG [Mat - Same State 2 - Mod - D20] (puzzle: Same State 2)	nM	26.5

###

tested on: K4 kissing-loop RNA reporter; test: apparent KD of K4 kissing-loop reporter; higher = weaker reporter binding; conditions: Eterna round: R107; input ligand: tryptophan 2.4 mM;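 also: bound reporter read as fluorescence of individual clusters on recovered sequencing chips by microscopy, with normalized cluster intensities fitted with a binding model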
# binarize apparent KD of K4 kissing-loop reporter: threshold 200 nM inclusive, high side MET, low side NOT MET

Residue Sequence	Assay System	Qualitative Label
GUGGUACAGGCGGCCGCCACUAGUGAUGUUAGUGAUAGAAGAUAUAGUAUAUAUCGGCAUUUAGUUAGGACCGGGCCUGGUGGUG [wwwrcmullin]	K4 kissing-loop RNA reporter	MET
UCGGGAGGCCGAAGGAGCGCCGCCAGUGAUGUUGGGAGUUAGAUACCAGUGAUGUUGGGCCGGCAGGUAGGUCGCGGCCGCGGAU [Exclusion Arginine B Gf 18]	K4 kissing-loop RNA reporter	NOT MET
AAGCAGUCACUCGAAUCCAUCGAAGAUGGACGAGGACCGGUACGGCCGCCACUCGGAGUGAUGUUCCGAAGACUGCAAAAUAAAA	K4 kissing-loop RNA reporter	MET
UAACUGAAGUGAUGUUUCAGUUCGUCGGAUACCAGUGCCGAUCAUCACCCUUGGCAGCCGUAAUAUUACUUAACAAUGACAGGUU [theeternabot_exclusion_KL_Theo_A_7]	K4 kissing-loop RNA reporter	NOT MET
AAAUAAAGGGCGGCCGCCACUGAUCGCCUCCGCGUGGGUAUGUAGUGAUGUUAUAUGGCCGCCAUCAGGACCGGGCCAAAUAAAA [#10 K4 Tryptophan B Same State]	K4 kissing-loop RNA reporter	NOT MET
CGCGCUGGUUGAGAGGUUGGCGCGAAUGAUACCAGUAUAUAAGAAUACCCUUGGCAGCAUAAGAAAGAUAUAGUGAUGUUGUAUA [SSTheophA.H]	K4 kissing-loop RNA reporter	MET
GCUACCUAUGCAGGAUAUGGUAUUACGAGUGAUGUUCGAGGCAUAUAGAGUGAUGUUCUAUAUCCACCAGAAGGGCAUAGGUAGC	K4 kissing-loop RNA reporter	NOT MET
UGGCGGCAAGGGUUAUUGGAAAGUAUUCGACGAGGACCGGUACGGCCGCCACUCGAACACCAGUGAUGUUGGUCUGGCUUAAGCC [Exclusion Tryptophan A GF 21]	K4 kissing-loop RNA reporter	MET
GGUGACAACCAGAGGUGAUGUAUAGAAUAGCGAGGACCGGUACGGCCGCCACUCGUGAAGAGAAAGGAGUGAUGUUCCGUAAUGG [Kazoo C5]	K4 kissing-loop RNA reporter	NOT MET
GCAAAACGCAGUGAUGUUGCGAUAUCGGAAGGAGCGCGUGAAAACGCAGGUAGGUCGCCGAUUCAGUGAGUAUCUCGCUGUUUGC [Arginine A K4 18]	K4 kissing-loop RNA reporter	MET
UGACUGGACUGAAGGAGCGCGCGAGACAAAGUCUCGAACUUCUAGUGAUGUUAGAAAAUAACGCAGGUAGGUCGCAGUCUAGUCU	K4 kissing-loop RNA reporter	NOT MET
AUUGUCGGAGUCUGUGCUGACUGACGAGCAAAGGAUAUGUUAUUAAACAGAAGGUUGUGCUGCUUAAGUGAUGUUUUUGGAGCUA [theeternabot_sameState_KL_FMN_A_26]	K4 kissing-loop RNA reporter	MET
GUAGCCCUAUGUGAUACCAGACGGUAUAAAAUCCUGGCGGCCAGUGAUGUUGGCCAUCGCGUCCCUUGGCAGCACCAAGGCUGUA [theeternabot_sameState_KL_Theo_B_18]	K4 kissing-loop RNA reporter	NOT MET
UGUGUUUACCUGACCCAGUGAUGUUGGGAAGGAGCGUGCGAAAGCACAGGUAGGUCGCUCAACCUAAAGUCAGGUGAGCACUAAA [#SwitchBubble 9 #K4Early]	K4 kissing-loop RNA reporter	MET
